Entries and their KM
# assayed_target: Factor X (FX), P00742
# Sequence (P00742 whole entry, looked up): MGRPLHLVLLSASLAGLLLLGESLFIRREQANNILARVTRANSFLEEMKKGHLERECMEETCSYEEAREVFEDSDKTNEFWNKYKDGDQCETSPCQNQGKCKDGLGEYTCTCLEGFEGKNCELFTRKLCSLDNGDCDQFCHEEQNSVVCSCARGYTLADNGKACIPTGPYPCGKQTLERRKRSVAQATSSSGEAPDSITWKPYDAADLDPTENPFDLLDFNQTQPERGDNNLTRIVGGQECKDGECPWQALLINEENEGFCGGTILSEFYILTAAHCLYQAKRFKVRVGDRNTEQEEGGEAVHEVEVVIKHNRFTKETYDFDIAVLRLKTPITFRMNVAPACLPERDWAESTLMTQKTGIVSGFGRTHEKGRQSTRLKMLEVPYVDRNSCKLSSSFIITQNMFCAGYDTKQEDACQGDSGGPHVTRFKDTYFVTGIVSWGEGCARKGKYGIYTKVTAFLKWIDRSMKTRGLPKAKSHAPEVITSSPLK
observation_type: KM (µM)

>>> test_value("FIXa-R318Y/R338E/T343R/N346D/R403E/E410N (protein) chain 1: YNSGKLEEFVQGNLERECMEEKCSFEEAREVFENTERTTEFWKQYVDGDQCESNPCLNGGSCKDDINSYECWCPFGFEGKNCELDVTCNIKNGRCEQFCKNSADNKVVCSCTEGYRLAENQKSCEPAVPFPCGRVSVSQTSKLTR chain 2: VVGGEDAKPGQFPWQVVLNGKVDAFCGGSIVNEKWIVTAAHCVETGVKITVVAGEHNIEETEHTEQKRNVIRIIPHHNYNAAINKYNHDIALLELDEPLVLNSYVTPICIADKEYTNIFLKFGSGYVSGWGRVFHKGYSALVLQYLRVPLVDRATCLESTKFRIYDNMFCAGFHEGGRDSCQGDSGGPHVTEVEGTSFLTGIISWGEECAMKGKYGIYTKVSEYVNWIKNKTKLT")
0.067
>>> test_value("FIXa-Y155F/R338E/T343R/R403E/E410N (protein) chain 1: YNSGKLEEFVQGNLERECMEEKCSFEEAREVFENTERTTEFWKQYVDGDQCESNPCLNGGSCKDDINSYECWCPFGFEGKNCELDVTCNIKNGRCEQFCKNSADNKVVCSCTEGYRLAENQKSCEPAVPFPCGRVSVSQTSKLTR chain 2: VVGGEDAKPGQFPWQVVLNGKVDAFCGGSIVNEKWIVTAAHCVETGVKITVVAGEHNIEETEHTEQKRNVIRIIPHHNYNAAINKYNHDIALLELDEPLVLNSYVTPICIADKEYTNIFLKFGSGYVSGWGRVFHKGRSALVLQYLRVPLVDRATCLESTKFRIYNNMFCAGFHEGGRDSCQGDSGGPHVTEVEGTSFLTGIISWGEECAMKGKYGIYTKVSEYVNWIKNKTKLT")
0.0259

Cited source for all entries: patent US20210230570
